In this section, each of the binders is paired with its reported CRF2R Emax.
TEST_TARGET: T1, CRF2R
T1 sequence (Q13324 whole entry, species assumed, looked up): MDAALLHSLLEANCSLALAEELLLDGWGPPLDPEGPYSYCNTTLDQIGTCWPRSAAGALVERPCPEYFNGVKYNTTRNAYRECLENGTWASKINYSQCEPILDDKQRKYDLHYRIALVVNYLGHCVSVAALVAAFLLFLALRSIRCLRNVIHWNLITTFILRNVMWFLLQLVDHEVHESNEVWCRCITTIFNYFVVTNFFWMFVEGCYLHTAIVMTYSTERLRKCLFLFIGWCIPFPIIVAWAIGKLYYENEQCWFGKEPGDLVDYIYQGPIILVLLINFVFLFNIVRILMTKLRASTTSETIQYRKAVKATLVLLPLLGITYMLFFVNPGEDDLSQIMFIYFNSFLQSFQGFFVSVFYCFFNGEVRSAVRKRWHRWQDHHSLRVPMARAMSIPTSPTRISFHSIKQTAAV
EXPERIMENT_DESCRIPTION: cell-based or functional assay
Ends that are not written are not given here.
PARAMETER: CRF2R Emax (%)

>>> number("IVLSLDVPIGLLQILIEIEKQEKEKQQAANNRLLLDTI-NH2 [SEQ ID NO 154]")
100
>>> number("ZGPPISIDLPFQLLRKMIEIEKQEKEKQQATTNRLLLATV (C-terminal amide) [SEQ ID NO 17]")
96
>>> number("ZGPPISIDLPQQLLRKMIEIEKQEKEKQQAANNRLLLDTI (C-terminal amide) [SEQ ID NO 198]")
100
>>> number("ZGPPISIDLPTFLLRKMIEIEKQEKEKQQAANNRLLLDTI (C-terminal amide) [SEQ ID NO 44]")
87
>>> number("DNPSLSIDLPLYLLRTLLELARTQSQRERAEQNAIIFASV-NH2 [SEQ ID NO 177]")
97.7
>>> number("IVLSLDVPIGLLQILIEIEKQEKEKQQAANNARILARV-NH2 [SEQ ID NO 166]")
99
>>> number("IVLSLDVPIGLLQILLEIEKQEKEKQQAANNRLLLDTI-NH2 [SEQ ID NO 158]")
89
>>> number("SQEPPISLDLPTGLLREVLEMTKADQLAQQAHSNRKLLDIA-NH2 [SEQ ID NO 98]")
5.5
>>> number("IVLSLDVPIGLLQILLEQEKQRAAREQATTNARILARV-NH2 [SEQ ID NO 115]")
98
>>> number("ZGPPISIDLPYILLRKMIEIEKQEKEKQQAANNRLLLDTI (C-terminal amide) [SEQ ID NO 204]")
93
>>> number("ZGPPISIDLPTGLLRKMIEIEKQEKEKQQAANNRLLLDTI (C-terminal amide) [SEQ ID NO 73]")
11
>>> number("ZGPPISIDLPFGLLRKMIEIEKQEKEKQQAANNRLLLDTI (C-terminal amide) [SEQ ID NO 68]")
74
